We begin with a simple list: items and their reported Plant response rating, Galium.
System: galium (catchweed bedstraw, Galium aparine)
Assay: Test C greenhouse herbicide test, pre- and postemergence
Assay type: in vivo
Conditions: Preemergence, 125 g ai/ha; scale 0 to 100, 0 is no effect, 100 is complete control

Worked set:
State the recorded Plant response rating, Galium for this entry: CCOC(=O)Oc1c(C)nn(C)c(=O)c1-c1c(CC)ccc2ccccc12 [Compound 37]
95

Entry to check: Cc1ccc2ccccc2c1-c1c(O)c(Cl)nn(C)c1=O [Compound 125]
100

// query: CCC(=O)Oc1c(C)nn(C)c(=O)c1-c1c(C)sc2ccc(Cl)cc12 [Compound 109]
90

---
Would you kindly share the measured Plant response rating, Galium for COC(=O)Oc1c(C)nn(C)c(=O)c1-c1c(C)sc2c(C)cc(C)cc12 [Compound 81] ?
95

What do you get for COc1nn(C)c(=O)c(-c2c(C)ccc3ccccc23)c1OC(C)=O [Compound 138] ?
98

Would you mind doing CC(=O)Oc1c(C)nn(C)c(=O)c1-c1c(C)cc(C)c2ccccc12 [Compound 153] as well?
100

Try this compound too: C#CCOC(=O)Oc1c(C)nn(C)c(=O)c1-c1c(C)sc2ccc(C)cc12 [Compound 87]
98

Request: CCOC(=O)Oc1c(C)nn(C)c(=O)c1-c1c(C)sc2c(C)cc(C)cc12 [Compound 83]
95

Proceed to Cc1nn(C)c(=O)c(-c2c(C)sc3ccc(Cl)cc23)c1O [Compound 104]
90

* * *

System: ryegrass, Italian (Italian ryegrass, Lolium multiflorum)
Assay: Test A greenhouse herbicide test, pre- and postemergence
Assay type: in vivo
Settings: Preemergence, 500 g ai/ha; 0 to 100 scale where 0 is no effect and 100 is complete control
Measured Plant response rating, Ryegrass, Italian, listed per entry.

Quick one: Plant response rating, Ryegrass, Italian for Cc1nn(C)c(=O)c(-c2c([N+](=O)[O-])ccc3ccccc23)c1OC(=O)C(C)(C)C ?
50

* * *

System: ryegrass, Italian (Italian ryegrass, Lolium multiflorum)
Assay: Test C greenhouse herbicide test, pre- and postemergence
Type: in vivo
Settings: Postemergence, 250 g ai/ha; scale 0 to 100, 0 no effect, 100 complete control; 13 to 15 d
endpoint: Plant response rating, Ryegrass, Italian
Please give the numeric answer without any surrounding text.

Give the measured Plant response rating, Ryegrass, Italian of Cc1ccc2ccccc2c1-c1c(O)c(Cl)nn(C)c1=O .
95

Note, next up: Cc1cc(C)c2sc(C)c(-c3c(OC(=O)OC(C)C)c(C)nn(C)c3=O)c2c1
85

// next record C#CCOC(=O)Oc1c(C)nn(C)c(=O)c1-c1c(C)sc2ccc(C)cc12
85

Same for Cc1ccc2ccc(C)c(-c3c(O)c(C)nn(C)c3=O)c2c1
95

Also COC(=O)Oc1c(Br)nn(C)c(=O)c1-c1c(C)ccc2ccccc12 , if possible.
60

Now try CC(=O)Oc1c(C)nn(C)c(=O)c1-c1c(C)oc2ccc(C)cc12 .
85

Also check Cc1cc(C)c2sc(C)c(-c3c(OC(=O)OCCCl)c(C)nn(C)c3=O)c2c1
95

Lookup CC(=O)Oc1c(C)nn(C)c(=O)c1-c1c(C)cc(C)c2ccccc12
95

* * *

Reported Plant response rating, Oilseed Rape is given for each of the following compounds.
Tested on: oilseed rape (Brassica napus)
Assay: Test D controlled growth environment herbicide test, pre- and postemergence
Format: in vivo
Settings: Postemergence, 250 g ai/ha; scale 0 to 100 (0 no effect, 100 complete control)
Excerpt: […]
Field format: numeric only.

Please review the following examples before continuing.
Please look up its Plant response rating, Oilseed Rape: C#CCOC(=O)Oc1c(C)nn(C)c(=O)c1-c1c(C)sc2ccc(C)cc12 [Compound 87]
75

Try this compound too: CC(=O)Oc1c(Br)nn(C)c(=O)c1-c1c(C)ccc2ccccc12 [Compound 129]
70

Also COC(=O)Oc1c(C)nn(C)c(=O)c1-c1c(C)sc2c(C)cc(C)cc12 [Compound 81] , if possible.
85

Continuing:
What measured Plant response rating, Oilseed Rape goes with CCOC(=O)Oc1c(C)nn(C)c(=O)c1-c1c(C)ccc2ccccc12 [Compound 73] ?
95

Repeat with CC(=O)Oc1c(C)nn(C)c(=O)c1-c1c(C)sc2c(C)cc(C)cc12 [Compound 27]
85

Proceed to CCC(=O)Oc1c(C)nn(C)c(=O)c1-c1c(C)sc2ccc(Cl)cc12 [Compound 109]
85

Then this compound: Cc1ccc2ccccc2c1-c1c(O)c(C)nn(C)c1=O [Compound 59]
90

* * *

Quick reference for Plant response rating, Ryegrass, Italian among some compounds
System: ryegrass, Italian (Italian ryegrass, Lolium multiflorum)
Assay: Test A greenhouse herbicide test, pre- and postemergence
Assay type: in vivo
Settings: Postemergence, 500 g ai/ha; visual rating after approx. 10 d, 0 to 100 scale (0 no effect, 100 complete control)
Lab note: jot the number down without any unit.

Which Plant response rating, Ryegrass, Italian is reported for this compound? CCC(=O)Oc1c(C)nn(C)c(=O)c1-c1c(C(F)(F)F)ccc2ccccc12
100

Further cases:
Entry Cc1nn(C)c(=O)c(-c2c([N+](=O)[O-])ccc3ccccc23)c1OC(=O)C(C)(C)C has what Plant response rating, Ryegrass, Italian?
70

Please do the same for CSCC(=O)Oc1c(C)nn(C)c(=O)c1-c1cccc2ccccc12 as well.
100

Also Cc1nn(C)c(=O)c(-c2c(C)sc3ccccc23)c1OC(=O)N1CCOCC1 ?
50

* * *

The following compounds are shown together with reported Plant response rating, Ryegrass, Italian values.
Tested on: ryegrass, Italian (Italian ryegrass, Lolium multiflorum)
Test: Test A greenhouse herbicide test, pre- and postemergence
Type: in vivo
Conditions: Postemergence, 500 g ai/ha; visual rating after approx. 10 d, 0 to 100 scale (0 no effect, 100 complete control)
Write the number on its own, no unit after it.

Solved entries:
Could you tell me which Plant response rating, Ryegrass, Italian is on file for Cc1nn(C)c(=O)c(-c2ccc(F)c3ccccc23)c1OC(=O)CC(F)(F)F [Compound 123] ?
100

Then Cc1nn(C)c(=O)c(-c2cc(F)cc3ccccc23)c1OS(C)(=O)=O [Compound 115] ?
100

// repeat for CCOC(=O)Oc1c(C)nn(C)c(=O)c1-c1c(C(F)(F)F)ccc2ccccc12 [Compound 146] and report
100

Next:
Which Plant response rating, Ryegrass, Italian is reported for this compound? CC(=O)Oc1c(C)nn(C)c(=O)c1-c1c(C(F)(F)F)ccc2ccccc12 [Compound 148]
90

Try the compound Cc1sc2ccc(Cl)cc2c1-c1c(OS(C)(=O)=O)c(Cl)nn(C)c1=O [Compound 114]
90

Entry COC(=O)Cn1nc(C)c(O)c(-c2cccc3ccccc23)c1=O [Compound 172] please
60

Moving on to the next compound: Cc1ccc2sc(C)c(-c3c(OCC#N)c(C)nn(C)c3=O)c2c1 [Compound 160]
90

* * *

Tested on: kochia (Kochia scoparia)
Experiment: Test A greenhouse herbicide test, pre- and postemergence
Type: in vivo
Settings: Postemergence, 500 g ai/ha; 0 to 100 scale, 0 is no effect, 100 is complete control
endpoint: Kochia plant response rating
# output: bare number, no unit

Please review the following examples before continuing.
Please report the recorded Kochia plant response rating for CC(=O)Oc1c(C)nn(C)c(=O)c1-c1c(C)sc2c(C)cc(C)cc12 .
90

Query COC(=O)Oc1c(C)nn(C)c(=O)c1-c1c(C)sc2c(C)cc(C)cc12 next
100

Can you check CCOC(=O)Oc1c(C)nn(C)c(=O)c1-c1c(C)ccc2ccccc12 next?
100

Same question, CCC(=O)Oc1c(C)nn(C)c(=O)c1-c1c(C)sc2c(C)cc(C)cc12 this time
90

Would you kindly repeat that for Cc1cc(C)c2c(-c3c(OC(=O)C(C)(C)C)c(C)nn(C)c3=O)c(C)sc2c1 ?
0

Same question, Cc1sc2ccccc2c1-c1c(OC(=O)OC(C)C)c(Cl)nn(C)c1=O this time
60

Now the compound C#CCOC(=O)Oc1c(C)nn(C)c(=O)c1-c1c(C)sc2ccc(C)cc12
90

Try this compound next: COc1nn(C)c(=O)c(-c2c(C)ccc3ccccc23)c1OC(=O)OC(C)C
100

---
Which Kochia plant response rating value belongs to CCc1ccc2ccccc2c1-c1c(OC(=O)OC(C)C)c(C)nn(C)c1=O ?
30

Do the same for CCOC(=O)Oc1c(C)nn(C)c(=O)c1-c1c(CC)ccc2ccccc12 please
90

Now the same for CC(=O)Oc1c(C)nn(C)c(=O)c1-c1c(C)sc2cc(C)cc(C)c12
0

* * *

Catalogue of compounds with associated Plant response rating, Ragweed
Tested on: ragweed (common ragweed, Ambrosia elatior)
Assay: Test A greenhouse herbicide test, pre- and postemergence
Format: in vivo
Details: Preemergence, 500 g ai/ha; 0 to 100 scale where 0 is no effect and 100 is complete control

Reported Plant response rating, Ragweed for CCOC(=O)Oc1c(C)nn(C)c(=O)c1-c1c(C(F)(F)F)ccc2ccccc12 : what is it?
80

Would you mind doing C#CCOC(=O)Oc1c(C)nn(C)c(=O)c1-c1c(C)sc2ccc(C)cc12 as well?
80

Continuing:
If you can, please state the reported Plant response rating, Ragweed value of Cc1ccc2sc(C)c(-c3c(OCC#N)c(C)nn(C)c3=O)c2c1 .
80

Another compound to look at: COC(=O)Oc1cnn(C)c(=O)c1-c1c(C)ccc2ccccc12
90

Please answer likewise for CC(=O)Oc1c(C)nn(C)c(=O)c1-c1c([N+](=O)[O-])ccc2ccccc12
90

Provenance of the data: patent US10597388B2
